MIC listing for selected compounds.
test system: HINF 30063; test: Antibacterial assay (Test A), microtitration MIC; format: cell-based, H. influenza; details: Minimum Inhibitory Concentration, strain HINF 30063
Measurement Name: MIC (µg/mL)

- O=C(NC[C@H]1CN(c2ccc(C3CCC(O)[C@@H](O)C3)cc2)C(=O)O1)C(F)F (stereo in doubt) [Example 14]: 16
- O=C1O[C@@H](Cn2ccnn2)CN1c1ccc(N2CC[C@@H](O)[C@@H](O)C2)c(F)c1 (stereo in doubt) [Example 5]: 32
- CC(=O)NC[C@H]1CN(c2ccc([C@@H]3CCC(=O)[C@@H](O)C3)c(F)c2)C(=O)O1 (stereo in doubt) [Example 25]: 16
- CC(=O)NC[C@H]1CN(c2ccc(C3CCC(O)CC3)c(F)c2)C(=O)O1 (stereo in doubt) [Example 16]: 8
- NC(=O)[C@H]1CN(c2ccc(C3CCC(=O)CC3)c(F)c2)C(=O)O1 [Example 24]: 32
- CC(=O)NC[C@H]1CN(c2ccc(C3CCC(O)C(F)C3)c(F)c2)C(=O)O1 (single isomer, unassigned) [Example 26]: 16
- O=C(NC[C@H]1CN(c2ccc(C3CCC(O)CC3)c(F)c2)C(=O)O1)C(F)F (stereo in doubt) [Example 18]: 8
- CON=C1CCC(c2ccc(N3C[C@H](CNC(C)=O)OC3=O)cc2F)CC1 (stereo partly drawn) [Example 22]: 32
- CCC(=O)NC[C@H]1CN(c2ccc(C3CCC(O)C(F)C3)c(F)c2)C(=O)O1 (single isomer, unassigned) [Example 27]: 8
- CC(=O)NC[C@H]1CN(c2ccc(N3CC[C@@H](O)[C@@H](O)C3)c(F)c2)C(=O)O1 (stereo in doubt) [Example 1]: 32
- CCC(=O)NC[C@H]1CN(c2ccc(C3CCC(O)[C@@H](O)C3)c(F)c2)C(=O)O1 (stereo in doubt) [Example 8]: 8
- O=C(NC[C@H]1CN(c2ccc(C3CCC(O)[C@@H](O)C3)cc2)C(=O)O1)C(Cl)Cl (stereo in doubt) [Example 13]: 8
- CC(=O)NC[C@H]1CN(c2ccc(C3CC[C@@H](O)[C@@H](O)C3)cc2)C(=O)O1 (single isomer, unassigned) [Example 12]: 16
- CC(=O)NC[C@H]1CN(c2ccc(C3CCC(=O)CC3)c(F)c2)C(=O)O1 [Example 20]: 16
- CCC(=O)NC[C@H]1CN(c2ccc(C3CCC(O)CC3)c(F)c2)C(=O)O1 (stereo in doubt) [Example 17]: 4
- O=C(NC[C@H]1CN(c2ccc(C3CCC(O)[C@@H](O)C3)c(F)c2)C(=O)O1)C(F)F (stereo in doubt) [Example 10]: 8
- CON=C1CCN(c2ccc(N3CC(CNC(C)=O)OC3=O)cc2F)CC1O (stereo not drawn) [Example 4]: 64
- CC(=O)NC[C@H]1CN(c2ccc(N3CCC(=O)[C@@H](O)C3)c(F)c2)C(=O)O1 [Example 2]: 16
- O=C1O[C@@H](CNC(=S)C(F)F)CN1c1ccc(C2CCC(O)C(F)C2)c(F)c1 (single isomer, unassigned) [Example 28]: 32
- O=C1O[C@@H](CNC(=S)C(F)F)CN1c1ccc(C2CCC(O)CC2)c(F)c1 (stereo partly drawn) [Example 19]: 8
- NC(=O)[C@H]1CN(c2ccc(C3CCC(O)CC3)c(F)c2)C(=O)O1 (stereo in doubt) [Example 23]: 64
- O=C1CCN(c2ccc(N3C[C@H](Cn4ccnn4)OC3=O)cc2F)C[C@@H]1O [Example 6]: 64
- CC(=O)NC[C@H]1CN(c2ccc(C3CCC(=NO)CC3)c(F)c2)C(=O)O1 (stereo partly drawn) [Example 21]: 16
- O=C1O[C@@H](CNC(=S)C(F)F)CN1c1ccc(C2CCC(O)[C@@H](O)C2)c(F)c1 (stereo in doubt) [Example 11]: 8
- CC(=O)NC[C@H]1CN(c2ccc(N3CC/C(=N/O)[C@@H](O)C3)c(F)c2)C(=O)O1 (stereo in doubt) [Example 3]: 16
- O=C1O[C@@H](CNC(=S)C(F)F)CN1c1ccc(C2CCC(O)[C@@H](O)C2)cc1 (stereo in doubt) [Example 15]: 16
- O=C(NC[C@H]1CN(c2ccc(C3CCC(O)[C@@H](O)C3)c(F)c2)C(=O)O1)C(Cl)Cl (stereo in doubt) [Example 9]: 4
